Just for reference, ChEMBL document CHEMBL6103630 is where these values come from.

- PROTOCOL_SUMMARY: Tmax in male Sprague-Dawley rat at 10 mg/kg, po by UHPLC-MS/MS analysis
- Type: ADME, organism-based
- PROTOCOL_CONDITIONS: in vivo

[
  {
    "STRUCTURE_AS_SMILES": "C=CC(=O)Nc1ccc(Nc2nc(Nc3ccc(N4C[C@@H](C)N[C@@H](C)C4)c(OC)c3)ncc2Cl)cc1Cl",
    "UNIT_LABEL": "min",
    "Tmax": 30
  }
]

---

- EXPERIMENTAL_SYSTEM: Fibroblast growth factor receptor 3 (Homo sapiens, UniProt P22607, V555M)
- Sequence (P22607 23-806 V555M limits assumed): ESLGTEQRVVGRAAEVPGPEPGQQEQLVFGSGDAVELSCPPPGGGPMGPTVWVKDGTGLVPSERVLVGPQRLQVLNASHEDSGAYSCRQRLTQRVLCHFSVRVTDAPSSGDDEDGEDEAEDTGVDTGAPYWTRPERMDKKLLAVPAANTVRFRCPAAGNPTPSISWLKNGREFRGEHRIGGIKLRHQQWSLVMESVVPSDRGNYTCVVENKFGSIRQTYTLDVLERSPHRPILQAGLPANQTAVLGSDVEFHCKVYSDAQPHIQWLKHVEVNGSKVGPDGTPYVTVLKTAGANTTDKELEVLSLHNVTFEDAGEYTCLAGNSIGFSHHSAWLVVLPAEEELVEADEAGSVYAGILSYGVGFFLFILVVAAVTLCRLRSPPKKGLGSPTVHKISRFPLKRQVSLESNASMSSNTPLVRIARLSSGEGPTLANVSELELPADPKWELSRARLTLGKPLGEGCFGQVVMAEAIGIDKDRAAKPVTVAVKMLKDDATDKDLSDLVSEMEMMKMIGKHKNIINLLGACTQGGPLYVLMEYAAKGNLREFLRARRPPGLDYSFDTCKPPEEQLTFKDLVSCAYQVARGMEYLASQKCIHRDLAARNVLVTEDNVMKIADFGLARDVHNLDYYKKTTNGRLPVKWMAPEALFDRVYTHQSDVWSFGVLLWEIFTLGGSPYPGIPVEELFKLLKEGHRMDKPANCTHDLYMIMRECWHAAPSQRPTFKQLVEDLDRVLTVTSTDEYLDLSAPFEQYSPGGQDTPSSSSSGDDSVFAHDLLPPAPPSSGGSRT
OBSERVED_PROPERTY: IC50 (nM)

[
  {
    "STRUCTURE_AS_SMILES": "C=CC(=O)Nc1ccc(Nc2nc(Nc3ccc(N4C[C@@H](C)N[C@@H](C)C4)c(OC)c3)ncc2Cl)cc1Cl",
    "EXPERIMENTAL_SYSTEM": "Fibroblast growth factor receptor 3 (Homo sapiens, UniProt P22607, V555M)",
    "OBSERVED_PROPERTY": "IC50",
    "UNIT_LABEL": "nM",
    "DATA_VALUE": 4.3
  }
]
